Test system: OVCAR-4 ovarian
Test: NCI tumour cell line growth inhibition, 48 h

{"molecule": "C[C@@H]1CC[C@H]2C(COC/C=C/COCC3=C(C(F)(F)F)O[C@@H]4O[C@@]5(C)CC[C@H]6[C@H](C)CC[C@@H]3[C@@]46OO5)=C(C(F)(F)F)O[C@@H]3O[C@@]4(C)CC[C@@H]1[C@]32OO4", "GI50": "0.518 µM"}
{"molecule": "O=C(NCCN1CCOCC1)Nc1ccc(-c2cc3c(Nc4ccc(Oc5cccc(C(F)(F)F)c5)c(Cl)c4)ncnc3s2)cc1", "GI50": "3.26 µM"}
{"molecule": "Cc1ccc2[nH]c(C(=O)NN3C(=O)CSC34CCCC(C)C4)c(-c3ccccc3)c2c1 (stereo not drawn)", "GI50": "18.4 µM"}
{"molecule": "CN(C)CCOc1nc2c3cccnc3cc(-c3cccc(Cl)c3)c2c2ncccc12", "GI50": "1.3 µM"}
{"molecule": "O=C(Nc1cccc(C(F)(F)F)c1)c1cccc(NC2=C(Cl)C(=O)N(Cc3ccccc3)C2=O)c1", "GI50": "52.2 µM"}
{"molecule": "O=C(CC1(O)C(=O)Nc2ccc(Br)cc21)c1ccc(C(=O)NCC2CCC3(CC2)OOC2(CCCCC2)OO3)cc1 (stereo not drawn)", "GI50": "6.93 µM"}
{"molecule": "O=C1/C(=C/c2ccc([N+](=O)[O-])s2)Oc2ccccc21", "GI50": "0.538 µM"}
{"molecule": "CCOC(=O)N1C/C(=C/c2ccc(OC)cc2)C(=O)/C(=C/c2ccc(OC)cc2)C1", "GI50": "2.77 µM"}

---

Tested on: UACC-257 melanoma
Test: NCI tumour cell line growth inhibition, 48 h; in the data active = GI50 below about 0.43 µM; inactive = the rest
Classes used: active, inactive

{"compound": "CCCC[P+](c1ccccc1)(c1ccccc1)c1ccccc1", "label_class": "inactive"}
{"compound": "O=C(NCCN1CCOCC1)Nc1ccc(-c2cc3c(Nc4ccc(Oc5cccc(C(F)(F)F)c5)c(Cl)c4)ncnc3s2)cc1", "label_class": "inactive"}
{"compound": "CCN(Cc1nc2cc(C(F)(F)F)ccc2nc1-c1ccccc1)c1ccc(OC)c(OC)c1", "label_class": "active"}
{"compound": "CCOC(=O)CNC(=O)CCCn1c(=O)c2c3ccccc3n(C)c2n2nnc(-c3ccccc3)c12", "label_class": "inactive"}
{"compound": "O=C(Nc1cccc2cccnc12)c1ccc(N2C(=O)[C@@H]3[C@H](C2=O)[C@@H]2C=C[C@H]3C2)cc1", "label_class": "inactive"}
{"compound": "CCOC(=O)c1c(C)n(CC(C)C)c2c1cc1oc(=O)c(=O)n3cnc2c13", "label_class": "inactive"}
{"compound": "CS(=O)c1ccc(-c2nc(-c3ccc(F)cc3)c(-c3ccncc3)[nH]2)cc1 (centres undefined)", "label_class": "inactive"}
{"compound": "CCn1c(-c2nonc2N)nc2c(C#CC(C)(C)O)nc(O[C@@H](CN)c3ccccc3)cc21", "label_class": "inactive"}
{"compound": "COc1cc(-c2nc(SCC(=O)Nc3ccc(C(C)=O)cc3)[nH]c(=O)c2C#N)cc(OC)c1OC", "label_class": "inactive"}

---

Test system: LOX IMVI melanoma
Assay: NCI tumour cell line growth inhibition, 48 h
The reader will find reported TGI values listed item by item below.

{"compound": "COc1ccc(NC(=O)c2sc3nc(C)c(C(O)c4ccc(OC)cc4)cc3c2N)cc1 (stereo not drawn)", "TGI": "> 50 µM"}
{"compound": "CCN(Cc1nc2cc(C(F)(F)F)ccc2nc1-c1ccccc1)c1ccc(OC)c(OC)c1", "TGI": "27.2 µM"}
{"compound": "c1ccc2cc(OCC3CO3)c(OCC3CO3)cc2c1 (stereo not drawn)", "TGI": "12 µM"}
{"compound": "COc1cccc(/C(C=O)=C(\\Cl)c2ccc(OC)c(OC)c2)c1", "TGI": "28.7 µM"}
{"compound": "NC(=O)c1csc(CCCCCCc2nc(C(N)=O)cs2)n1", "TGI": "> 100 µM"}
{"compound": "NC(=O)C12C3C4C1C1C2C3C41C(N)=O (stereo not drawn)", "TGI": "> 100 µM"}
{"compound": "NC1=CC(C(=O)c2ccncc2)c2nc3ccccc3nc21 (stereo not drawn)", "TGI": "88.1 µM"}
{"compound": "CCN(CC)CCCCCOc1cc(O)c2c(=O)cc(-c3ccccc3)oc2c1", "TGI": "2.96 µM"}
{"compound": "CCCCSCc1nc2nc(Cl)c(Cl)nc2[nH]1", "TGI": "44.5 µM"}
{"compound": "Cc1cn(CC2=NCC(C)(C)CN2)c(=O)[nH]c1=O", "TGI": "> 100 µM"}
{"compound": "COC(=O)[C@H]1C=C[C@@H](C)n2c(=O)c3ccccc3c(=O)n21", "TGI": "> 100 µM"}
{"compound": "O=C(O)C(Br)C(Br)c1ccccc1[N+](=O)[O-] (stereo not drawn)", "TGI": "> 100 µM"}
{"compound": "Fc1ccc(F)c(C2SCc3nc4ccccc4n32)c1 (stereo not drawn)", "TGI": "> 100 µM"}
{"compound": "Cn1c2ccccc2c(=O)c2c(O)cc3c(c21)C=CC1(CCCC1)O3", "TGI": "> 100 µM"}
{"compound": "CCCCN(CCCC)CC(C)(C)C(O)c1ccc(OC)c2ccccc12 (stereo not drawn)", "TGI": "19.4 µM"}
{"compound": "O=C1/C(=C/c2ccc([N+](=O)[O-])s2)Oc2ccccc21", "TGI": "1.64 µM"}
{"compound": "CC(C)=CCC/C(C)=C/CC/C(=C/COP(=O)(OCc1ccc([N+](=O)[O-])o1)N(C)CCCCCl)CC=C(C)C (stereo not drawn)", "TGI": "11.5 µM"}
{"compound": "Cc1ccc(C)c(/C(=N\\N=C(N)N)C2CC2)c1", "TGI": "> 100 µM"}
{"compound": "CC1(C)OC(=O)C(C)(C)OC1=O", "TGI": "> 100 µM"}
{"compound": "CO[C@@](c1ccccc1)(c1nc(C#N)c(N)o1)C(F)(F)F", "TGI": "> 100 µM"}
{"compound": "CC(=O)NCCCCCCNC(C)=O", "TGI": "> 10000 µM"}
{"compound": "CC(=O)OCC(OC(C)=O)C(OC(C)=O)C(OC(C)=O)C(=O)CNn1c(-c2ccccc2)nc2ccc(Br)cc2c1=O (stereo not drawn)", "TGI": "> 100 µM"}
{"compound": "Cc1[nH]c(=O)nc(CC(O)(c2ccccc2)c2ccccc2)c1-c1ccccc1", "TGI": "> 100 µM"}
